- system-name: T1, GST-human NOGO-A56 (human, UniProt P08515 1-218 = GST)
- T1 construct: GST-tagged fusion expressed in E. coli BL21 and purified on glutathione-sepharose; coated on ELISA plates or amine-coupled to a CM5 chip; also called hNOGO; recombinant human NOGO
- T1 sequence (P08515 1-218, tags or fused parts left off): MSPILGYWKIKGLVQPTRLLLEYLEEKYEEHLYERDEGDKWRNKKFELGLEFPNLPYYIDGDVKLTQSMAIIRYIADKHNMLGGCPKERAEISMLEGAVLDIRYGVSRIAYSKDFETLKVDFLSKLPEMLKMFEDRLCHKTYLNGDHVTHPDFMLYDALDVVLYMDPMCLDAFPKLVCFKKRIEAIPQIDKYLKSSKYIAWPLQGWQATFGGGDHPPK
- experiment-summary: SPR (Biacore) off-rate ranking, CHO-K1 transient supernatant over GST-human NOGO-A56 chip; single experiment
- Experimental: hNOGO (GST-human NOGO-A56) was immobilised to a CM5 chip by primary amine coupling using the Biacore Wizard program designed for targeted immobilisation levels. The CM5 sensor surface was activated by passing a solution of 50 mM N-hydroxy-succinimide (NHS) and 200 mM N-ethyl-N′-dimethylaminopropyl carbonide (EDC). […] The hNOGO chip was prepared as for kinetic analysis. […] These were passed directly over the sensor surface and the interaction measured. […]
measurement-name: koff (s⁻¹)
Supply the numeric figure in s⁻¹, leaving out any unit text.

Q: Need koff of H15L16 (antibody, human IgG1, kappa, V domains shown, Tested as CHO-K1 supernatant) VH: QVQLVQSGAEVVKPGASVKLSCKASGYTFTSYWMHWVKQRPGQGLEWIGNINPSNGGTNYNEKFKSKATLTVDTSSSTAYMELSSLRSEDSAVYYCELGQGYWGQGTLVTVSS VL: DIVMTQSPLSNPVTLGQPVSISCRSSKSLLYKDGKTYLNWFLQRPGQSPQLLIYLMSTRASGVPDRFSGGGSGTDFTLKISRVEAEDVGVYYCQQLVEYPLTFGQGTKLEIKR , thanks.
Ans: 0.00604

Q: Need koff of H18L18 (antibody, human IgG1, kappa, V domains shown, Tested as CHO-K1 supernatant) VH: QVQLVQSGAEVVKPGASVKLSCKASGYTFTSYWMHWVKQRPGQGLEWIGNINPSNGGTNYNEKFKSKATLTVDKSSSTAYMELSSLRSEDSAVYYCELGQGYWGQGTLVTVSS VL: DIVMTQDPLSNPVTLGQPVSISCRSSKSLLYKDGKTYLNWFLQRPGQSPQLLIYLMSTRASGVSDRFSGSGSGTDFTLKISRVEAEDVGVYYCQQLVEYPLTFGQGTKLEIKR , thanks.
Ans: 0.0058

Q: Need koff of H6L17 (antibody, human IgG1, kappa, V domains shown, Tested as CHO-K1 supernatant) VH: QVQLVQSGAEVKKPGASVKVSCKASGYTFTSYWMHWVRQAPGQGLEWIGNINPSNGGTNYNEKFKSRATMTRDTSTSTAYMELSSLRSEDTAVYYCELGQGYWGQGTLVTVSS VL: DIVMTQDPLSLPVTLGQPASISCRSSKSLLYKDGKTYLNWFQQRPGQSPQLLIYLMSTRASGVSDRFSGSGSGTDFTLKISRVEAEDVGVYYCQQLVEYPLTFGQGTKLEIKR , thanks.
Ans: 0.0158
